Cited source for all entries: PubChem BioAssay (NCI)

Would you mind telling me the reported growth of each entry?
# Test system: A549/ATCC NSCLC
# procedure-text: NCI-60 one-dose screen, 48 h (100 = growth as untreated, 0 = no growth, -100 = all killed)
# assay-conditions: 10 µM unless noted
This is part of a sample that, as a whole, favours compounds with a hit. Of some 83,000 tested, about 20% had one in any assay.
Dear colleague, please return just the value in %, with no unit written.

In plain terms, "O=C(NCc1cn(Cc2cccc(Oc3ccccc3)c2)nn1)c1cccnc1Nc1ccc(F)cc1" has a documented growth of 59.5

In plain terms, "COc1ccc(C(=O)n2nc(/C=C/c3ccc(O)c(OC)c3)cc2/C=C/c2ccc(O)c(OC)c2)cc1" has a documented growth of 3.98

In plain terms, "COc1ccc2c(c1)cn1c3ccc(OC)cc3[nH]c(=O)c21" has a documented growth of -57

In plain terms, "Nc1nnc(-c2ccc3ccccc3c2O)o1" has a documented growth of 93.5
